Values were extracted from the supplement of paper PMC13207355.

# System: E57 (patient-derived glioblastoma stem cells of mesenchymal subtype);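 note: nuclei counted by high-content imaging of Hoechst-stained cells in laminin-coated 384-well plates, relative to 0.1% DMSO vehicle wells, with staurosporine as cell-death control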
# procedure summary: surviving fraction (nuclei count normalised to DMSO); higher = more cells surviving (less toxic)
# condition info: 12.3 nM; exposure time: 72 h
Counter-ions that a name gives are not always drawn.
test readout: surviving fraction
API doc: respond with a numeric literal and nothing else, no unit.

* Nc1ccn([C@@H]2O[C@H](CO)[C@@H](O)C2(F)F)c(=O)n1 [Gemcitabine HCl] | 0.168
* CC[n+]1c(/C=C/C=C2/N(C)c3ccccc3C2(C)C)sc2ccccc21 | 0.881
* COc1cccc2c(NCc3ccccc3)nc(-n3c(N)nc4ccccc43)nc12 | 0.993
* COc1c(N2CCNC(C)C2)c(F)cc2c(=O)c(C(=O)O)cn(C3CC3)c12 (stereo not drawn) | 1.04
* COc1cc(N)c(Cl)cc1C(=O)NC1CCN(CCCOc2ccc(F)cc2)CC1OC (stereo not drawn) [Cisapride] | 0.903
* C/C=C1\NC(=O)[C@H]2CSSCC/C=C/[C@H](CC(=O)N[C@H](C(C)C)C(=O)N2)OC(=O)[C@H](C(C)C)NC1=O | 0.0535
* C#C[C@]1(O)CC[C@H]2[C@@H]3CCC4=CCCC[C@@H]4[C@H]3CC[C@@]21C | 1.03

Here's the next entry for you.
Notebook: COc1cc2c(c(OC)c1OC)-c1ccc(OC)c(=O)cc1[C@@H](NC(C)=O)CC2 , surviving fraction read as 0.0932

###

# Test system: FT3469 (normal neural stem cell line)
# procedure summary: phenotypic distance (Euclidean, principal components) from DMSO controls (arbitrary units); higher = stronger morphological change
# condition info: 37 nM; exposure time: 72 h
Where a name gives a salt, the structure may show the parent alone.
Entries and their phenotypic distance values follow.
API doc: respond with a numeric literal and nothing else, no unit.

Example compounds with recorded phenotypic distance:
* CC[N+](CC)(CC)CCOc1ccc(/C=C/c2ccccc2)cc1 | 0.814
* Clc1ccc(CSC(Cn2ccnc2)c2ccc(Cl)cc2Cl)cc1 (stereo not given) [Sulconazole nitrate] | 0.893
* CC[n+]1c(/C=C/C=C2/N(C)c3ccccc3C2(C)C)sc2ccccc21 | 1.69
* CC(NCCC(c1ccccc1)c1ccccc1)c1ccccc1 (stereo not given) [Fendiline hydrochloride] | 0.282

Here's the next entry for you.
Notebook: CCn1cc(C(=O)O)c(=O)c2cc(F)c(N3CCNCC3)nc21 , phenotypic distance read as 0.677

###

Entries and their phenotypic distance values follow.
# Test system: E28 (patient-derived glioblastoma stem cells of classical subtype)
# procedure summary: phenotypic distance (Euclidean, principal components) from DMSO controls (arbitrary units); higher = stronger morphological change
# condition info: 3000 nM; exposure time: 72 h
API doc: respond with a numeric literal and nothing else, no unit.

- COc1cccc2c1C(=O)c1c(O)c3c(c(O)c1C2=O)C[C@@](O)(C(=O)CO)C[C@@H]3O[C@H]1C[C@H](N)[C@H](O[C@@H]2CCCCO2)[C@H](C)O1: 4.01
- Nc1nc2n[nH]nc2c(=O)[nH]1: 3.73
- CC(=O)OC[C@H]1O[C@@H]([S-])[C@H](OC(C)=O)[C@@H](OC(C)=O)[C@@H]1OC(C)=O.CCP(CC)CC.[Au+]: 11.4
- C[C@H]1O[C@@H](O[C@H]2[C@@H](O)C[C@H](O[C@H]3[C@@H](O)C[C@H](O[C@H]4CC[C@@]5(C)[C@H](CC[C@@H]6[C@@H]5C[C@@H](O)[C@]5(C)[C@@H](C7=CC(=O)OC7)CC[C@]65O)C4)O[C@@H]3C)O[C@@H]2C)C[C@H](O)[C@@H]1O: 2.92
- NCCCP(=O)(O)O: 1.53
- COc1cccc2c(NCc3ccccc3)nc(-n3c(N)nc4ccccc43)nc12: 7.6

Here's the next entry for you.
Notebook: C#C[C@]1(O)CC[C@H]2[C@@H]3CCc4cc(OC5CCCC5)ccc4[C@H]3CC[C@@]21C , phenotypic distance read as 0.675
